- experimentalTarget: Cytochrome P450 2D6 (Homo sapiens, UniProt P10635); further: in other assays of this panel Not Active means under 50% inhibition at 10 µM
- Sequence (P10635 whole entry): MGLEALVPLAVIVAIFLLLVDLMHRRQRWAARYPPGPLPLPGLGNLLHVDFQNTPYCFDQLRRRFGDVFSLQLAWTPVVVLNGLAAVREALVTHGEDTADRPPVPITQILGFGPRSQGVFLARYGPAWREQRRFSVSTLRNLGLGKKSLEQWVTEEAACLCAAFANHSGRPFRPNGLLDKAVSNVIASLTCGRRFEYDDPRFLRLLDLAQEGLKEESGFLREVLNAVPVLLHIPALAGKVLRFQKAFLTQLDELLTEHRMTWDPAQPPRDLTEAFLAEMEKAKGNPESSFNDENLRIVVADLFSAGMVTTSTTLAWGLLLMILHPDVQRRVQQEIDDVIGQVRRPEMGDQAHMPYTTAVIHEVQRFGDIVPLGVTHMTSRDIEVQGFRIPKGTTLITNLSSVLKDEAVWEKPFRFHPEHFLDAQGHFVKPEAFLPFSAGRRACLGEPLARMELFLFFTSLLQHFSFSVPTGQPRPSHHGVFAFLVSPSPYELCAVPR
- details: bti-tn-5b1-4
Where a SMILES comes first, the peptide text is derived from it. Bridges are numbered along the chain shown (N, C = ends). [ ]: non-standard residue; d: D form. The star is where a group is joined. Ileψ(thiazoline)Cys = CC[C@H](C)[C@H](N)C1=N[C@H](C(=O)*)CS1; dOrn = NCCC[C@@H](N)C(=O)O

compound	experimentalTarget	Ki
O=c1cc(-c2ccccc2)oc2c1ccc1ccccc12	Cytochrome P450 2D6 (Homo sapiens, UniProt P10635)	Not Active
CC[C@H](C)[C@H](N)C1=N[C@H](C(=O)N[C@@H](CC(C)C)C(=O)N[C@H](CCC(=O)O)C(=O)N[C@H](C(=O)N[C@H]2CCCCNC(=O)[C@H](CC(N)=O)NC(=O)[C@@H](CC(=O)O)NC(=O)[C@H](Cc3cnc[nH]3)NC(=O)[C@@H](Cc3ccccc3)NC(=O)[C@H]([C@@H](C)CC)NC(=O)[C@@H](CCCN)NC2=O)[C@@H](C)CC)CS1 [BACITRACIN] ({Ileψ(thiazoline)Cys}-L[dE]IK[dOrn]I[dF]H[dD]N; lactam 4-C)	Cytochrome P450 2D6 (Homo sapiens, UniProt P10635)	Not Active
C=C1[C@@H]2CCC3[C@@](CC[C@@H]4[C@H](C(=O)O)C[C@@H](O[C@@H]5O[C@H](CO)[C@@H](OS(=O)(=O)[O-])[C@H](OS(=O)(=O)[O-])[C@H]5OC(=O)CC(C)C)C[C@@]34C)(C2)[C@@H]1O.[K+].[K+] (stereo partly drawn) [ATRACTYLOSIDE]	Cytochrome P450 2D6 (Homo sapiens, UniProt P10635)	Not Active
COC1=CC(=O)C[C@@H](C)[C@]12Oc1c(Cl)c(OC)cc(OC)c1C2=O	Cytochrome P450 2D6 (Homo sapiens, UniProt P10635)	Not Active
COc1cc(C(=O)NC2CCCNC2)cc(OC)c1OC (stereo not drawn) [TROXIPIDE]	Cytochrome P450 2D6 (Homo sapiens, UniProt P10635)	Not Active
Nc1nc(=O)[nH]cc1F	Cytochrome P450 2D6 (Homo sapiens, UniProt P10635)	Not Active
COc1ccc(CCN2CCC(Nc3nc4ccccc4n3Cc3ccc(F)cc3)CC2)cc1	Cytochrome P450 2D6 (Homo sapiens, UniProt P10635)	Not Active
COCc1c(C(C)C)nc(C(C)C)c(/C=C/[C@@H](O)C[C@@H](O)CC(=O)O)c1-c1ccc(F)cc1	Cytochrome P450 2D6 (Homo sapiens, UniProt P10635)	Not Active
CN1CCC[C@H]1c1cccnc1	Cytochrome P450 2D6 (Homo sapiens, UniProt P10635)	Not Active
CCOC(=O)c1ccc(N)cc1	Cytochrome P450 2D6 (Homo sapiens, UniProt P10635)	Not Active
C=CC[C@@H]1/C=C(\C)C[C@H](C)C[C@H](OC)[C@H]2O[C@@](O)(C(=O)C(=O)N3CCCC[C@H]3C(=O)O[C@H](/C(C)=C/[C@@H]3CC[C@@H](O)[C@H](OC)C3)[C@H](C)[C@@H](O)CC1=O)[C@H](C)C[C@@H]2OC [TACROLIMUS ANHYDROUS]	Cytochrome P450 2D6 (Homo sapiens, UniProt P10635)	Not Active
NC(CO)(CO)CO	Cytochrome P450 2D6 (Homo sapiens, UniProt P10635)	Not Active
Cc1c(-c2ccccc2)oc2c(C(=O)OCCN3CCCCC3)cccc2c1=O [FLAVOXATE]	Cytochrome P450 2D6 (Homo sapiens, UniProt P10635)	Not Active
